- testSystem: Phosphorylase b kinase gamma catalytic chain, skeletal muscle/heart isoform (Homo sapiens);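 further: values are averaged percent inhibition of PHKG1 kinase activity, from the GSK PKIS inhibitor-set screen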
- conditionInfo: at 0.1 µM
Give class 1 when the value for inhibition is at least 5%. Give class 0 when it is less.

Input: Confirm if inhibition reported for the molecule CNC(=O)c1ncccc1Nc1nc(Nc2cc3c(cc2OC)CCCN3C(=O)CN(C)C)nc2[nH]ccc12 is 5% or above.
Output: class 1

Input: Confirm if inhibition reported for the molecule CN(c1ccc(NC(=O)NCCN2CCOCC2)cc1)c1ccnc(Nc2ccc(CS(C)(=O)=O)cc2)n1 is 5% or above.
Output: class 0

Input: Confirm if inhibition reported for the molecule CCN1CCC(C(=O)Nc2n[nH]c3nnc(-c4cccc(F)c4F)cc23)CC1 is 5% or above.
Output: class 0

Input: Confirm if inhibition reported for the molecule c1cnn2ncc(-c3ccnc(NCCCN4CCOCC4)n3)c2c1 is 5% or above.
Output: class 0
